EXPERIMENT NOTES: inhibitors of TNFa-induced NFkB p65 translocation, primary screen, imaging, HUVEC, MLSMR starter and 10KST1 sets (AID 438);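 note: compound added about 3h40 before a 20 min TNFalpha stimulation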
MEASUREMENT CONDITIONS: HUVEC TNFa-induced p65 nuclear translocation; measured here: nuclei count (cytotoxicity indicator), at 2.08 µM
// label = Yes if cell count is not less than 500, otherwise No

INSERT INTO assay_data (molecule, group_label) VALUES
  ('COc1ccc(CN2CCN(C(=O)Cc3ccccc3)CC2)c(OC)c1', 'No'),
  ('Cc1c(N=Cc2c(O)n(CCc3ccc(F)cc3)c(=O)[nH]c2=O)c(=O)n(-c2ccccc2)n1C', 'Yes'),
  ('CCOC(=O)C(O)(c1ccc(N(CC)C(=O)OC)cc1)C(F)(F)F (stereo not given)', 'Yes'),
  ('O=C(O)Cn1cc(C(=O)c2ccccc2)c2ccccc21', 'No'),
  ('CN1C[C@H](CNC(=O)OCc2ccccc2)C[C@@H]2c3cccc4c3c(cn4C)C[C@H]21', 'Yes');

Record Cc1oc2ccc(OC(=O)N(C)C)cc2c1C(=O)OC(C)C ; criterion: cell count no lower than 500. Met?
No

Now try CCOC(=O)C1CCCCC12C(C#N)=C(N)Oc1n[nH]c(C)c12 (stereo not given) .
Yes

Another molecule to check: CCCCNC(=O)Nc1ccc(C(O)(C(=O)OC)C(F)(F)F)cc1 (stereo not given)
Yes

Query CN(C)[C@@H]1C(=O)C(C(N)=O)=C(O)[C@@]2(O)C(=O)C3=C(O)c4c(O)cccc4[C@@](C)(O)[C@H]3C[C@@H]12 next
Yes

Next: CN1C(=O)C(Cc2cccc3ccccc23)C(=O)N(C)C1=O
No

Also check C=CCn1c(O)c(C(C)=NCc2cccnc2)c(=O)[nH]c1=O
No

###

EXPERIMENT NOTES: inhibitors of TNFa-induced NFkB p65 translocation, primary screen, imaging, HUVEC, MLSMR starter and 10KST1 sets (AID 438);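 note: compound added about 3h40 before a 20 min TNFalpha stimulation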;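 for inhibition: signal is the nuclear over cytoplasmic p65 intensity ratio per well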
MEASUREMENT CONDITIONS: HUVEC TNFa-induced p65 nuclear translocation; at 2 µM, stronger effect = higher value unless noted
Calls of active or inactive are those of the source.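 The calls were made as follows: active = inhibition above 20% together with a positive visual image hit; inconclusive = visual image hit but inhibition not above 20%; inactive = no visual image hit.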
Catalogue of inhibition values

INSERT INTO results (compound, observed_result) VALUES
  ('CCOc1c(P(=S)(N(C)C)N(C)C)c(C)nn1-c1ccccc1', '-5.2% (inactive)'),
  ('Cc1ccc2nc(N3CCN(C)CC3)[nH]c2c1', '-15.9% (inactive)'),
  ('O=C(c1ccc2nc(-c3ccco3)c(-c3ccco3)nc2c1)N1CCC2(CC1)OCCO2', '-12.6% (inactive)'),
  ('O=c1[nH]c(=O)n(Cc2ccc(F)cc2)c(O)c1C=NCCCN1CCOCC1', '-22.4% (inactive)'),
  ('COc1ccc(C2SCC(=O)Nc3c2c(=O)[nH]n3C2CCCCCC2)cc1OC (centres undefined)', '21% (inactive)'),
  ('O=C(c1ccncc1)C12CN3CN(CN(C3)C1)C2', '4.5% (inactive)'),
  ('CCOc1ccc(-n2c(O)c(C=Nc3ccc(N(CC)CC)cc3)c(=O)[nH]c2=O)cc1', '-4.7% (inactive)'),
  ('Cc1ccc(-c2nc(CS(=O)CC(=O)N3CCC4(CC3)OCCO4)c(C)o2)cc1 (centres undefined)', '-30.6% (inactive)');

Requested field: inhibition. Item: COP(=O)(OC)C(O)C(Cl)(Cl)Cl (centres undefined)
4.7% (inactive)

Input CC(NC(C)(C)C)C(=O)c1cccc(Cl)c1 (centres undefined)
-1.3% (inactive)

Input CCN1c2nc3ccccn3c(=O)c2CC2(C(=O)N(C)C(=O)N(C)C2=O)C1C (centres undefined)
4.3% (inactive)

Let us now turn to O=C(c1cccs1)C1CN2CCC1CC2 (centres undefined)
-15.9% (inactive)

Proceed to CCCCNC(=O)c1c(N)n(CCCOC)c2nc3ccccc3nc12
14.6% (inactive)

Moving on to the next compound: CCCCc1nc2ccccc2c(=O)n1-c1ccccc1O
-3.2% (inactive)

Same question, O=c1[nH]c2ccccc2n1C1CCN(CCCC(c2ccc(F)cc2)c2ccc(F)cc2)CC1 this time
-2.2% (inactive)

###

EXPERIMENT NOTES: reduction of polyQ htt aggregates in cells – imaging, exon1htt(103Q)mCFP cells, high-content imaging, primary screen (AID 483);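 note: compound exposure lasted 3 days before fixation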
MEASUREMENT CONDITIONS: exon1htt(103Q)mCFP cell line, aggregate imaging, at 2 µM; stronger effect = higher value
RECORDED ENDPOINT: inhibition of aggregation (%)
Quick reminder: number only, in %, skip the unit.

INSERT INTO measurements (compound, recorded_endpoint, observed_result) VALUES
  ('CN1CC[C@@]23CCCC[C@@H]2[C@@H]1Cc1ccc(O)cc13', 'inhibition of aggregation', -9.3);

Return reported inhibition of aggregation; argument: COc1ccc(OC)c(C2=NOC(C(=O)N3CCC4(CC3)OCCO4)C2)c1 (stereo not drawn)
4

Moving on to the next compound: CP(C)(=O)CCC(=O)O
-5.3

Now this one: O=c1c2ccccc2nc(CSc2ncnc3nc[nH]c23)n1-c1ccccc1
2.9

Now the same for Cc1cc(OCC(=O)O)c2c3c(c(=O)oc2c1)CCCC3
-15

Another: CC(CCc1ccccc1)NC(C)C(O)c1ccc(O)cc1 (stereo not drawn)
19.5

# repeat for O=C(c1ccc(CS(=O)(=O)c2ccccc2)o1)N1CCC2(CC1)OCCO2
-2

Entry O=C(NC1(C(F)(F)F)Oc2ccc(Cl)cc2O1)N1CCC2(CC1)OCCO2 (stereo not drawn) please
-18.5

###

EXPERIMENT NOTES: reduction of polyQ htt aggregates in cells – imaging, exon1htt(103Q)mCFP cells, high-content imaging, primary screen (AID 483);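 note: compound exposure lasted 3 days before fixation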
MEASUREMENT CONDITIONS: exon1htt(103Q)mCFP cell line, aggregate imaging, at 2 µM; stronger effect = higher value
Examples of compounds with documented inhibition of aggregation follow.
Unit % implied. Number only.

Below, 2 compounds whose answers are already recorded.
INSERT INTO measurements (compound, result_unit, observed_result) VALUES
  ('CCC(COC(=O)c1cc(OC)c(OC)c(OC)c1)(c1ccccc1)N(C)C (stereo not given)', '%', 12.7),
  ('COc1ccccc1N1CCN(Cc2c(F)cccc2F)CC1', '%', 13.8);

Given the entry C[C@H]1CCC/C=C/C2C[C@H](O)CC2[C@H](O)/C=C/C(=O)O1 (stereo not given in full) , report its measured inhibition of aggregation.
-436

Same question for O=C1CC(N2CCC(n3c(=O)[nH]c4ccccc43)CC2)C(=O)N1c1ccc(F)cc1 (stereo not given) please.
6.3

# iterate: O=c1[nH]c(=O)n(-c2cccc3ccccc23)c(O)c1C=NCCCn1ccnc1
-2.6

###

EXPERIMENT NOTES: reduction of polyQ htt aggregates in cells – imaging, exon1htt(103Q)mCFP cells, high-content imaging, primary screen (AID 483);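 note: compound exposure lasted 3 days before fixation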;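 for nuclei count: percent of the per-plate median nuclei count of sample wells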
MEASUREMENT CONDITIONS: exon1htt(103Q)mCFP cell line, aggregate imaging, at 2 µM; measured here: cell count, toxicity
Reported nuclei count values for a set of compounds

Before answering, review these 2 worked examples.
INSERT INTO results (compound, recorded_endpoint, observed_result) VALUES
  ('CC1CCC(C(=O)NC(C(=O)N2CCC3(CC2)OCCO3)C(C)C)CC1 (stereo not drawn)', 'nuclei count', '97.2%'),
  ('COc1cc(/C=N/n2cnnc2)ccc1OC(=O)N(C)C', 'nuclei count', '114%');

Kindly consider the entry below.
Fill in: nuclei count of c1ccc2c(c1)OCC(C1=NCCN1)O2 (stereo not drawn) is ___
109%

###

Documented slope across a set of molecules
TEST TARGET: Alpha-2C adrenergic receptor (Homo sapiens)
EXPERIMENT NOTES: compounds altering alpha2C-coupled GIRK flux – cell-based, HEK293 alpha2C/GIRK1/2, thallium flux, primary screen (AID 624);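 note: slope of fluorescence ratio to pre-addition baseline per second over 15 to 24 s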
MEASUREMENT CONDITIONS: thallium flux BTC fluorescence, at 10 µM, actives lie on both sides
Form field (numeric): enter value without unit.

Use the examples below as a reference point.
INSERT INTO measurements (molecule, observed_result) VALUES
  ('OC(CNC1CCCCC1)c1ccccc1 (centres undefined)', 0.00434),
  ('CCN(CC)c1ccc(N=Cc2c(O)n(-c3cc(OC)ccc3OC)c(=O)[nH]c2=O)cc1', 0.00328),
  ('Cc1ccc(Cn2c(C)c3cnn(CC(=O)N4CCC5(CC4)OCCO5)c(=O)c3c2C)cc1', 0.0048);

Here is the next item to consider.
Give slope (Alpha-2C adrenergic receptor (Homo sapiens)) of the following molecule: CC1CCC(C(=O)NC(C(=O)N2CCC3(CC2)OCCO3)C(C)C)CC1 (centres undefined)
0.00626

###

EXPERIMENT NOTES: endothelial E-selectin expression blockers – imaging, HUVEC, immunofluorescence, MLSMR starter and 10KST1 sets, primary screen (AID 487);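 note: signal is fraction of cell area covered by stained E-selectin grains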
MEASUREMENT CONDITIONS: HUVEC TNFalpha-induced E-selectin immunofluorescence imaging, at 2 µM; stronger effect = higher value
Use inhibition to assign classes; range list: low-valued (below -70%), mid-valued (-70% to below -20%), high-valued (-20% or more)

INSERT INTO assay_data (molecule, group_label) VALUES
  ('C[N+]1(C)CCc2cc3c(cc2[C@H]1[C@@H]1OC(=O)c2c1ccc1c2OCO1)OCO3', 'mid-valued');

Into which bin does this molecule go? CN(C)CCc1nn[nH]n1
high-valued

COc1ccccc1N1CCN(Cc2cccc(OC)c2O)CC1 , same question.
high-valued

Moving on to the next molecule: CCOC(=O)C1SC2(C(F)F)CC1(O)c1c(c(OC)c3occc3c1OC)O2 (configuration not stated)
high-valued

Try this molecule too: O=C1CC[C@@]2(O)[C@H]3Cc4ccc(O)c5c4[C@@]2(CCN3CC2CC2)[C@H]1O5
mid-valued

Repeat with CC(=NCc1ccc2c(c1)OCO2)c1c(O)n(C)c(=O)n(C)c1=O
high-valued

Now try CC(=NCCCO)c1c(O)n(Cc2ccccc2)c(=O)[nH]c1=O .
low-valued

// provenance: PubChem BioAssay
